# assaySystem: hD4R (Homo sapiens (Human), UniProt P21917)
# Sequence (P21917 whole entry): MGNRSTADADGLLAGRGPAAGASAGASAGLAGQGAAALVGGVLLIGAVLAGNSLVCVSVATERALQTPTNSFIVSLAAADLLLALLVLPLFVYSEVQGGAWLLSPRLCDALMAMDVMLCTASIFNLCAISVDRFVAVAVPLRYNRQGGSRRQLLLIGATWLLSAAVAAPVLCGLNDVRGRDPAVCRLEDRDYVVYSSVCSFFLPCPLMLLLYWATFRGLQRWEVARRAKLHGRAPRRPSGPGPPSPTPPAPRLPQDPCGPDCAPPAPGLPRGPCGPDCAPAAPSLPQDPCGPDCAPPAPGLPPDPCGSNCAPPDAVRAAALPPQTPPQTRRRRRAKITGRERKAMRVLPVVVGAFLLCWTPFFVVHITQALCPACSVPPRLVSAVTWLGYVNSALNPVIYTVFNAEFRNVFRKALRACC
# procedureSummary: [3H]N-methylspiperone competition binding, D4R
# testSettings: HEK 293 membranes, [3H]N-methylspiperone; read-out: Ki (nM) ± SEM D4R
// reported Ki for each item listed
State the answer as a number, implicitly in nM.

compound: Cc1cccc2nc(CCCN3CCC(c4ccccn4)CC3)sc12 [Compound 15]
unitLabel: nM
recordedValue: 1.13

Query for hD4R (Homo sapiens (Human), UniProt P21917): what Ki does the record show for CCc1ccnc(C2CCN(CCCc3nc4ccccc4s3)CC2)c1 [Compound 19] ?
5.89

---

# assaySystem: UniProt P14416
# Sequence (P14416 whole entry): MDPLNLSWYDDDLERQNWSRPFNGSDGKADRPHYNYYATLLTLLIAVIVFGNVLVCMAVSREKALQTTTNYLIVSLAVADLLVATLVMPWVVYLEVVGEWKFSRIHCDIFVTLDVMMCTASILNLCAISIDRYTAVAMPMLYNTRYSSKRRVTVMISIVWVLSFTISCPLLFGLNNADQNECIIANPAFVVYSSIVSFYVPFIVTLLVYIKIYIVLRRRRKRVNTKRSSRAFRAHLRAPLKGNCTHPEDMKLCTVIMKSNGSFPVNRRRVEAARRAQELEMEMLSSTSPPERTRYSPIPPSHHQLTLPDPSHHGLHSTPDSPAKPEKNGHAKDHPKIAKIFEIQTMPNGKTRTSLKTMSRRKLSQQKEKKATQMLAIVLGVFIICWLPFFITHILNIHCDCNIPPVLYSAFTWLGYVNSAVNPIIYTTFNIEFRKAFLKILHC
# procedureSummary: [3H]N-methylspiperone competition binding, D2R
# testSettings: HEK 293 membranes, read-out: Ki (nM) ± SEM D2R
propertyMeasured: Ki

# query: Ki of entry `Cc1cccc2nc(CCCN3CCC(c4ccccn4)CC3)sc12`
18000 nM

# query: Ki of entry `CCc1ccnc(C2CCN(CCCc3nc4ccccc4s3)CC2)c1`
12300 nM

Reference source for all entries: patent US12122771B2
